Origin of values: PubChem BioAssay AID1208

System: rat chronic carcinogenicity bioassay, TD50
Assay: DSSTox (CPDBAS) Carcinogenic Potency Database Summary Rat Bioassay Results
Conditions: TD50_Rat_Note: TD50 is harmonic mean of more than one positive test; TargetSites_Rat_Female: ear Zymbals gland; nasal cavity; oral cavity; stomach; vascular system; active compounds read low
Source text: The Carcinogenic Potency Database (CPDB) is a unique and widely used international resource of the results of over 6500 chronic, long-term animal cancer tests on over 1500 chemical substances. The CPDB provides easy access to the bioassay literature, with qualitative and quantitative analyses of both positive and negative experiments that have been published over the past 50 years in the general literature and by the National Cancer Institute/National Toxicology Program. […]

smiles.data: c1ccccc1
target.or.test.system: rat chronic carcinogenicity bioassay, TD50
Potency: 169 mg/kg/day

---

tested on: rat chronic carcinogenicity bioassay, TD50; test: DSSTox (CPDBAS) Carcinogenic Potency Database Summary Rat Bioassay Results; details: TD50_Rat_Note: TD50 is harmonic mean of more than one positive test; TargetSites_Rat_Female: liver; mammary gland; active compounds read low
property: Potency

smiles.data: ClC(Cl)(Cl)Cl
property: Potency
val: 27.8 mg/kg/day
--
smiles.data: CCOCCc1c(-c2ccccc2)nc(N)n2ncnc12
property: Potency
val: 548 mg/kg/day
--
smiles.data: c1ccc(NNc2ccccc2)cc1
property: Potency
val: 5.59 mg/kg/day
--
smiles.data: Cc1ccc(N)cc1N
property: Potency
val: 2.47 mg/kg/day
--
smiles.data: Cc1ncc([N+](=O)[O-])n1CCO
property: Potency
val: 542 mg/kg/day

---

tested on: rat chronic carcinogenicity bioassay, TD50; test: DSSTox (CPDBAS) Carcinogenic Potency Database Summary Rat Bioassay Results; conditions: TargetSites_Rat_Female: ear Zymbals gland; liver; mammary gland; active compounds read low

smiles.data: CC(=O)Nc1ccc2c(c1)C(=O)c1ccccc1-2
Potency: 6.17 mg/kg/day

smiles.data: O=C(Nc1ccc2c(c1)Cc1ccccc1-2)C(F)(F)F
Potency: 1.62 mg/kg/day

---

tested on: rat chronic carcinogenicity bioassay, TD50; assay: DSSTox (CPDBAS) Carcinogenic Potency Database Summary Rat Bioassay Results; details: TD50_Rat_Note: positive test results only by intraperitoneal or intravenous injection; TargetSites_Rat_BothSexes: pancreas; active compounds read low

smiles.data: [N-]=[N+]=CC(=O)OC[C@H](N)C(=O)O
target.or.test.system: rat chronic carcinogenicity bioassay, TD50
Potency: 0.793 mg/kg/day

---

system: rat chronic carcinogenicity bioassay, TD50; experiment: DSSTox (CPDBAS) Carcinogenic Potency Database Summary Rat Bioassay Results; conditions: TD50_Rat_Note: TD50 is harmonic mean of more than one positive test; TargetSites_Rat_Female: esophagus; nasal cavity; oral cavity; stomach; active compounds read low
property: Potency

smiles.data: CC(C)=CCl
target.or.test.system: rat chronic carcinogenicity bioassay, TD50
val: 31.8 mg/kg/day

---

test system: rat chronic carcinogenicity bioassay, TD50; test: DSSTox (CPDBAS) Carcinogenic Potency Database Summary Rat Bioassay Results; details: TD50_Rat_Note: positive test results only by intraperitoneal or intravenous injection; TD50 is harmonic mean of more than one positive; TargetSites_Rat_Female: kidney; active compounds read low
property: Potency

smiles.data: CN(N=O)C(=O)N[C@@H]1[C@@H](O)[C@H](O)[C@@H](CO)O[C@@H]1O
target.or.test.system: rat chronic carcinogenicity bioassay, TD50
val: 0.963 mg/kg/day
